- Test system: synthesis of LTB4 in human whole blood
- Method: human whole blood LTB4 production inhibition assay
- Assay type: cell-based
- Test Conditions: heparinized human whole blood, calcimycin 20 μM stimulation, plasma LTB4; read-out: hWB IC50
- Procedure: Compounds are additionally tested in a human whole blood assay to determine their ability to inhibit the synthesis of LTB4 in a cellular system. Compounds are combined with heparinized human whole blood and incubated for 15 minutes at 37° C. […] Plasma LTB4 concentrations are then measured using an antibody-based homogenous time-resolved fluorescence method (CisBio, Bedford, Mass.).
pIC50: −log10 of the molar value.
Metric Name: pIC50

CC(C)(C)n1c(-c2cccnc2-n2cncn2)nc2cc(-c3cnc(N)nc3)ccc21; 6.35
CC(C)(C)n1c(-c2ccncc2)nc2cc(-c3cnc(N)nc3)ccc21; 6.35
CC(C)(C)n1c(-c2nc(C3CC3)ccc2-n2cncn2)nc2cc(-c3cnc(N)nc3)ccc21; 6.85
COc1cc(-c2nc3cc(-c4cnc(N)nc4)ccc3n2C(C)(C)C)c(F)cn1; 7.24
CC(C)(C)n1c(-c2cc(C#N)cnc2-n2cncn2)nc2cc(-c3cnc(N)nc3)ccc21; 7.12

a = Cc1ncn(-c2ccc(C#N)nc2-c2nc3cc(-c4cnc(N)nc4)ccc3n2C2(C)CCC2)n1
b = Cc1ncnn1-c1ccc(C#N)nc1-c1nc2cc(-c3cnc(N)nc3)ccc2n1C1(C)CCC1
c = CC(C)(C)n1c(-c2cc(Cl)cnc2-n2cncn2)nc2cc(-c3cnc(N)nc3)ccc21
Request: Sequence the entries by pIC50, beginning with the highest number. Put the labels in the order asked and list them.
Result: c, a, b

I = COC(=O)c1cccnc1-c1nc2cc(-c3cnc(N)nc3)ccc2n1C(C)(C)C
II = Cc1ncn(-c2ccc(C#N)nc2-c2nc3cc(-c4cnc(N)nc4)ccc3n2C(C)(C)C)n1
Request: Compare I and II and name the one whose reported pIC50 is smaller. The response must carry the label of the picked entry.
Result: I
